target: Active Mouse ERK2 (mERK2) (Mus musculus (Mouse)); test: Active Mouse ERK2 (mERK2) Activity Assay (IMAP-FP); format: biochemical; conditions: phosphorylated active mERK2, 30 uM ATP; read-out: ERK 2 MAPK1 Mouse IC50
Sequence (P63085 whole entry): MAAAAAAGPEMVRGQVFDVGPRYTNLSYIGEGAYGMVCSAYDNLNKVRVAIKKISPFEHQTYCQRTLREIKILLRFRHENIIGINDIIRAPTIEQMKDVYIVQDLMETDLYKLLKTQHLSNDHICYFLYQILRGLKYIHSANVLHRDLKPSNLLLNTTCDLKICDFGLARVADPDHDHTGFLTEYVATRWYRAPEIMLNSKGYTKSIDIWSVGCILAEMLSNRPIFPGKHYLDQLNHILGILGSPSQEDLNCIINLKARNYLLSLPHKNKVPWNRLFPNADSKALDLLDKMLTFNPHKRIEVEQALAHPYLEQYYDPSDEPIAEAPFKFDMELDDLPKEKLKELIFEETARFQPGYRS
Where a name gives a salt, the structure may show the parent alone.
The label label 1 is reserved for IC50 strictly under 1 nM; label 0 covers values equal to or above it.

Reference set (5 entries):
COc1cccc(F)c1CN1CCCC(NC(=O)Nc2cc3[nH]nc(-c4ccnc(C)c4)c3cn2)C1 (centres unmarked): label 0
Cc1cc(-c2n[nH]c3cc(NC(=O)NC4CCCNC4)ncc23)ccn1 (centres unmarked) [Example 1, trifluoroacetate]: label 0
Cc1cc(-c2n[nH]c3cc(NC(=O)N[C@@H](c4ccccc4)C(F)(F)F)ncc23)ccn1: label 0
C[C@@H](NC(=O)Nc1cc2[nH]nc(C3=CCOCC3)c2cn1)c1ccccc1: label 1
Cc1cc(-c2n[nH]c3cc(NC(=O)NCc4ccc(Cl)cc4)ncc23)ccn1: label 1

Prompt: Given the entry "Cc1cc(-c2n[nH]c3cc(NC(=O)N[C@H](c4ccccc4)C(F)(F)F)ncc23)ccn1" , would its reported IC50 be below 1 nM?
Completion: label 0

Prompt: Is the reported IC50 for "Cc1cc(-c2n[nH]c3cc(NC(=O)N[C@H](C)c4ccc(Cl)cc4)ncc23)ccn1" strictly below 1 nM?
Completion: label 1

Prompt: Confirm or reject: IC50 of "Cc1cc(-c2n[nH]c3cc(NC(=O)NCc4cccnc4)ncc23)ccn1" lies strictly below 1 nM
Completion: label 0

====

molecular target: Active Human ERK2 (hERK2) (Homo sapiens (Human), UniProt P28482); assay: Active Human ERK2 (hERK2) Activity Assay (IMAP-FP); format: biochemical; details: phosphorylated active hERK2, 30 μM ATP; average; read-out: ERK 2 Human average IC50
Sequence (P28482 whole entry): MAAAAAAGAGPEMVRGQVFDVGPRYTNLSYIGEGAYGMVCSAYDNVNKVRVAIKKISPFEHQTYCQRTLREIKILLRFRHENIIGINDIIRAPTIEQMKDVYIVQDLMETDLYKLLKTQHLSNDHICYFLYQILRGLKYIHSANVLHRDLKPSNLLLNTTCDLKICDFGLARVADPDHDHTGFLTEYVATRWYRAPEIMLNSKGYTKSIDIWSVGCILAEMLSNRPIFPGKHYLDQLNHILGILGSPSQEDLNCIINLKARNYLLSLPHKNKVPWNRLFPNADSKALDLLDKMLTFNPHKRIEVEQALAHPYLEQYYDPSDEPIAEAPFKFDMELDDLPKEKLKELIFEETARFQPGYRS
pIC50: −log10 of the molar value.
Please note: Satisfied applies when pIC50 is 8 or greater, and Not satisfied applies otherwise.

Reference set, count: 7
C[C@@H](NC(=O)Nc1cc2[nH]nc(CNCC(F)F)c2cn1)c1ccccc1: Not satisfied
COC[C@@H](NC(=O)Nc1ncc2c(-c3ccncc3)n[nH]c2c1F)c1ccccc1: Satisfied
Cc1cc(-c2n[nH]c3cc(NC(=O)NC(c4ccc(F)cc4)C4CCCO4)ncc23)ccn1 (centres unmarked): Satisfied
C[C@@H](NC(=O)Nc1cc2[nH]nc(-c3cccc(Cl)c3)c2cn1)c1ccc(F)c(Cl)c1: Not satisfied
Cc1cc(-c2n[nH]c3cc(NC(=O)NCc4ncc(F)cc4F)ncc23)ccn1: Satisfied
Cc1cc(-c2n[nH]c3cc(NC(=O)NCc4ccc(F)cc4C(F)(F)F)ncc23)ccn1: Satisfied
Cc1cc(-c2n[nH]c3cc(NC(=O)NC4CNC4)ncc23)ccn1: Not satisfied

Turning to the following compound.
Prompt: Exam item: decide whether the reported pIC50 for Cc1cc(-c2n[nH]c3cc(NC(=O)NC4CCOC(C)(C)C4)ncc23)ccn1 (centres unmarked) is at least 8.
Completion: Not satisfied

====

biological target: Active Human ERK2 (hERK2) (Homo sapiens (Human)); assay: Active Human ERK2 (hERK2) Activity Assay (IMAP-FP); format: biochemical; conditions: phosphorylated active hERK2, 30 μM ATP; average; read-out: ERK 2 Human average IC50
READOUT_KIND: IC50 (nM)
Kindly provide the numeric value in nM only, without the unit symbol.

CC(F)(F)c1n[nH]c2cc(NC(=O)NCc3ccccc3)ncc12: 259

Summary for this molecule, "Cc1cc(-c2n[nH]c3cc(NC(=O)N[C@H](C)c4ccccn4)ncc23)ccn1" : IC50 is 0.914

The value of IC50 measured for the molecule "Cc1cc(-c2n[nH]c3cc(NC(=O)NC[C@@H](C)c4ccccc4)ncc23)ccn1" turned out to be 0.789

Record "Cc1cc(-c2n[nH]c3c(Cl)c(NC(=O)N[C@H](C)c4ccccc4)ncc23)ccn1" . Reported IC50: 3.07
